Tgt: T1, human GIP receptor (human, UniProt P48546 22-466)
T1 sequence (looked up): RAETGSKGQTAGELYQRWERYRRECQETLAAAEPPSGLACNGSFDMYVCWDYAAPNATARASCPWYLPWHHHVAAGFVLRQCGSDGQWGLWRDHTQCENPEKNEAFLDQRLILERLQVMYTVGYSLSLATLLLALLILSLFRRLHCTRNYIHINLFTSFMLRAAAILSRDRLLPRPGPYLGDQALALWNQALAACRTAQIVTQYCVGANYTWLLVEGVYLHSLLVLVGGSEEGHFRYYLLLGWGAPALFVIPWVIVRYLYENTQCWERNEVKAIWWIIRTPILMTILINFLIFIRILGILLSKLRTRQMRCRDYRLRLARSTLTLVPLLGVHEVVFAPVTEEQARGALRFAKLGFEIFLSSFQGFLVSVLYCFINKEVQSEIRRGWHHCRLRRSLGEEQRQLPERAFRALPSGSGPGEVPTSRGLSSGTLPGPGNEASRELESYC
Method Notes: cell-based or functional assay
*1 amine or outer side, *2 acyl side, *3 side chain or, on linkers, in order; H or OH if unused. Where no end group is shown, it is not given here. Side-chain parts run from the residue outwards. [ ]: non-standard residue; d: D form. The star is where a group is joined. C18 diacid = O=C(O)CCCCCCCCCCCCCCCCC(=O)*; C16 diacid = O=C(O)CCCCCCCCCCCCCCC(=O)*; γGlu = O=C(O)[C@H](CCC(=O)[*:2])N[*:1]; pGlu = O=C1CC[C@@H](C(=O)O)N1; AEEA = NCCOCCOCC(=O)O
Measured CisBio cAMP antagonism % inhib by item

| Binder | CisBio cAMP antagonism % inhib (%) |
| --- | --- |
| EGTFISDYSIAMDRIK([AEEA-AEEA-γGlu-C18 diacid])QQDFVNWLLAQR-NH2 (not fully specified (residue 1)) [AT377] | 90 |
| [pGlu]GTFISDYSIAMDRIK([AEEA-AEEA-γGlu-C18 diacid])QQDFVNWLLAQR-NH2 [AT381] | 74 |
| [pGlu]GTFISDYSIAMDRIK([AEEA-AEEA-γGlu-C16 diacid])QQDFVNWLLAQR-NH2 [AT379] | 95 |
| EGTFISDYSIAMDRIK([AEEA-AEEA-AEEA-γGlu-C18 diacid])QQDFVNWLLAQR-NH2 (not fully specified (residue 1)) [AT378] | 90 |
| EGTFISDYSIAMDRIK([AEEA-AEEA-AEEA-γGlu-C16 diacid])QQDFVNWLLAQR-NH2 (not fully specified (residue 1)) [AT375] | 83 |
| [pGlu]GTFISDYSIAMDRIK([AEEA-AEEA-AEEA-γGlu-C16 diacid])QQDFVNWLLAQR-NH2 [AT380] | 82 |
| EGTFISDYSIAMDRIK([AEEA-γGlu-C16 diacid])QQDFVNWLLAQR-NH2 (not fully specified (residue 1)) [AT373] | 91 |
| EGTFISDYSIAMDRIK([AEEA-γGlu-C18 diacid])QQDFVNWLLAQR-NH2 (not fully specified (residue 1)) [AT376] | 87 |
| EGTFISDYSIAMDRIK([AEEA-AEEA-γGlu-C16 diacid])QQDFVNWLLAQR-NH2 (not fully specified (residue 1)) [AT374] | 86 |

Each recorded value in this set is attributed to patent US20220025010A1.
